- protocol.notes: yeast display, Sf9 membrane polyspecificity reagent, FACS + sequencing; frameworks hold sequencing errors
measured.property: polyreactivity (PSR sort gate)

[
  {
    "sequence.record": "QVQLVESGGGLVQAGGSLRLSCAASGGTFGQYAMGWYRLAPGKERELVAAITSSGGRKYYADSVKGRFTISRDNAKNTVYLQMNSLKPEDTAVYYCAADVQSRYVGEGDYWGQGTQVTVSS",
    "result": "high polyreactivity"
  },
  {
    "sequence.record": "QVQLVESGGGLGQAGGSLRLSCAASGRIFYRNAMGWYRQAPGKERELVAAISSSGSTNYADSVKGRFTISRDNAKNTVYLQMNSLKPEDTAVDYCNDVVRWGYGYDYWGQGTQVTVSS",
    "result": "high polyreactivity"
  }
]

###

- protocol.notes: yeast display, Sf9 membrane polyspecificity reagent, FACS + sequencing; frameworks hold sequencing errors
measured.property: polyreactivity (PSR sort gate)

[
  {
    "sequence.record": "HVQLVESGGGLVQAGVSLRLSCAASGSIFSPYAMGGFRPAPGKERELLAAISSSGGSTYYADSVKRRFTISRDNAKNTVYLQMNSLKPEDTAVYYCAADSATGIFDRLNYWGQGTQVTVSS",
    "result": "high polyreactivity"
  },
  {
    "sequence.record": "QVQLVESGGGLVQAGGSLSLICAASGSIFTRNAMGWYRQAPGKERELVAAISRRGVSTYYADSVKGRFTNSRDNAKNTVYLQMNSLKPEDTAVYYCNKLSSYVVARRTTEYDYWGQGTQVTVSS",
    "result": "high polyreactivity"
  },
  {
    "sequence.record": "QVQLVESGGGLVQAGGSLRLSCAASGSLFNLYAMGWYIQAPGKERELVAAISWSGGRTFYADSVKGRFTISRDNAKNTVFLQMNSLKPEDTAVYDCAARSSRTTRQGYDYWGQGTQVNVSS",
    "result": "high polyreactivity"
  },
  {
    "sequence.record": "QVQLVESGGGIVQAGGSLRLSCAASGLTYGKYAMGWNRPAPGKERELVAANSRRGGSTYYADSVKGRFTISRDKAKNNDYLQMNRLKPEDSAVYYFNTDTKHTGLDYWGQGTQVSVSS",
    "result": "high polyreactivity"
  }
]

###

- protocol.notes: yeast display, Sf9 membrane polyspecificity reagent, FACS + sequencing; frameworks hold sequencing errors
measured.property: polyreactivity (PSR sort gate)

[
  {
    "sequence.record": "QVQLVESGGGLVQAGGSLRLSCAASGSTFYWYAMGWYRQAPGKERELVAAISSGGSTYYADSVKGRFTISRDNAKNTVYLQMNSLKPEDTAVYYCAAQTPYYLWYDTGDYWGQGTQVTVSS",
    "result": "high polyreactivity"
  },
  {
    "sequence.record": "QVQLVESGGGLVQAGGSLRLSCAVSGFNFPYYAMGWYRQAPGKERELVAAINQRGGSTYYADSVKGRFTISRDNAKNTVYLQMNSLKPEDTAVYYCAADRHSKTYYYSYGYWGQGTQVTVSS",
    "result": "high polyreactivity"
  }
]

###

- protocol.notes: yeast display, Sf9 membrane polyspecificity reagent, FACS + sequencing; frameworks hold sequencing errors
measured.property: polyreactivity (PSR sort gate)

[
  {
    "sequence.record": "QVQLVESGGGLVQAGGSLRLSCAASGSTFYYYAMGWYRQAPGKERELVAAIDRDDRTNYADSVKGRFTISRDNAKNTVYLQMNSLKPEDTAVYNSAADSSERRLLDFDYWGQGTQVTVSS",
    "measured.property": "polyreactivity (PSR sort gate)",
    "result": "low polyreactivity"
  },
  {
    "sequence.record": "QVQLEESGGGLVQAGGSLRLSCAASGSTFVYNPMGWYRQAPGKETELVAVITYRGGRTYSADSVKGRFTISRDYAKNSVYLQMNSLKPEDTAVYYCAKRVYGSKVRGYDYWGQGTQVTVSS",
    "measured.property": "polyreactivity (PSR sort gate)",
    "result": "high polyreactivity"
  },
  {
    "sequence.record": "QVQLVESGGGLVQAGGSLRLSCAASGRIFVVNAMGWYRQAPGKERELVATITRSGGITYYADSVKGRFTISRDNAKNTVYLQMNSLKPEDTAVYYCNADVLFYTYYTRGRFDFDYWGQGTQVTVAS",
    "measured.property": "polyreactivity (PSR sort gate)",
    "result": "low polyreactivity"
  },
  {
    "sequence.record": "QVQLVESGGGLVQAGGSLRLSCAASGSIFGGYAMGWYRQAPGKEREFVAAISRRGASTYYADSVKGRFTISRDNAKNTVYLQMNSLKPEDTAVYYCNARAYGRIDGHSATYGYWGQGTQVTVSS",
    "measured.property": "polyreactivity (PSR sort gate)",
    "result": "high polyreactivity"
  },
  {
    "sequence.record": "QVQLVESGGGLVQAGFSLRLSCAASGNIYYKYAMGWYRQAPGKERELVAAITWRVVRTYYADSVKGRFTISRDNAKNTVYLQMNSLKPEDTAVYYCAALSRQSGDYWGQGTQVTVSS",
    "measured.property": "polyreactivity (PSR sort gate)",
    "result": "high polyreactivity"
  },
  {
    "sequence.record": "QVQLVESGGGLVQAGGSLRLSCAASGSTFDWYAMGWYRQAPGKERELVAAISRGSRTYYADSVKGRFTISRDNAKNTVYLQKNSLKPEDTAVYYCARDKPTSYPDYYYWGQGTQVTVSS",
    "measured.property": "polyreactivity (PSR sort gate)",
    "result": "high polyreactivity"
  },
  {
    "sequence.record": "QVHLVESGGGLVQAGGTLRLRCAASGSTFERYVMGWYRHPLGKKGSWLPVLNHNGCSTYYAESVKGRFTISRDNAKNTVYLQMNSLKQEVTAVYYCAAYFRTVLDYGSWGQGTQVTVSS",
    "measured.property": "polyreactivity (PSR sort gate)",
    "result": "low polyreactivity"
  },
  {
    "sequence.record": "QVQLVESGGGLVQAGGSLRLSCAASGFIFSWYAMGWSRQAPGKERELVAAIDQSGDSTYYADSVKGRFTISRDNAKNTVYLQMNSLKPEDTAVYYCAAQSYDYWYDYDYWGQGTQVTVSS",
    "measured.property": "polyreactivity (PSR sort gate)",
    "result": "high polyreactivity"
  },
  {
    "sequence.record": "QVQLVESGGGLVQAGGSLRLSCAACGSTFGYNAMGWYRQAPGKERELVADISWSGGTTYYADSVKGRFTISRDNAKNTVYLQMNSLKPEDTAVYYCNARYPDRPVQGWRVEVDYWGQGTQVTVSS",
    "measured.property": "polyreactivity (PSR sort gate)",
    "result": "high polyreactivity"
  },
  {
    "sequence.record": "QVQLVESGGGIVQAGGSLRLSCAASGSIFDKNAMGWYRQAPGKERELVAAIDSGDTYYADSVKGRFTISRDNAKNTVYLQMNSLKPEDTAVYYCAADDVQYEYDYWGQGPQVTVSS",
    "measured.property": "polyreactivity (PSR sort gate)",
    "result": "low polyreactivity"
  },
  {
    "sequence.record": "QVQLVESGGGLFQAGGSLRLSCAASGFIFGQNAMGWYRQAPGKERELVAAIDWTGGRTYYADSVKGRFTISRDNAKNTVYLQMNSLKPEDTAVYYCAADGVWYADSPYSIHYGYWGQGTQVTVSS",
    "measured.property": "polyreactivity (PSR sort gate)",
    "result": "low polyreactivity"
  }
]

###

- protocol.notes: yeast display, Sf9 membrane polyspecificity reagent, FACS + sequencing; frameworks hold sequencing errors

[
  {
    "sequence.record": "QVQLVESGGGLVQAGGSLRLSCAASGSTFGVYAMGWYRQAPGKERELVAAISESGGNTYYADSVKGRFTISRDNAKNTVYLQLNSLKPEDPAVYYCNTDVVVVHYIQAYYWGQGTQVTVSS",
    "polyreactivity (PSR sort gate)": "low polyreactivity"
  },
  {
    "sequence.record": "QVQLVESGGGLVQAGGSLRLSCAASGRIFRANAMGWYRQAPGKEGELVAAISRSAGSTYYADSVKGRFTISRDKAKNTVYLQMNSLKPEDTAVYYCAAVVRNPGTYDYWGQGTQVTVSS",
    "polyreactivity (PSR sort gate)": "high polyreactivity"
  },
  {
    "sequence.record": "QVQLVESGGGLVQAGGSLRLSCAASGRIFRYYAMGWYRQAPGKERELVAAISGGGGTYYADSVKGRFTISRDNATNTVYLQMNSLKPEDTAVYYCNAETYDYWFGYDYWGQGTQVTVSS",
    "polyreactivity (PSR sort gate)": "high polyreactivity"
  },
  {
    "sequence.record": "QVQLVESGGGLVQAGGSLRLICAASGIIFDDYAMVWYRQAPGNERELVAAISVSGGSTYYADSVKGRFTISRDNAKNTVYLQMNSLKPEDTAVYYCAARLRWRYSYDYWGQGTQVTVSS",
    "polyreactivity (PSR sort gate)": "high polyreactivity"
  },
  {
    "sequence.record": "QVQLVESGGGLVQAGGSLRLSCAASGRTFSYNTMGWYRQAPGKERELVAAIDSDGSTNYADSVKGRFTISRDNAKNTVYLQMNSLKPEDTAVYYCAADRFQCGFWWLEYWGQGTQVTVSS",
    "polyreactivity (PSR sort gate)": "high polyreactivity"
  },
  {
    "sequence.record": "QVQVVESGGGLDQAGGSLRLSCAASGRIFFYYGMGWYRQAPGTERELVASISRGGSTTYADSVKGRFTISRDNAMKTVYLQMNSLKPEDSAVYYCARRYTQIYSSNYGYWGQGTEVTVSS",
    "polyreactivity (PSR sort gate)": "high polyreactivity"
  },
  {
    "sequence.record": "QVQLVESGGGLVQAGGILRLSCAASGSTFAYNAMGWYRQEPGKERELFAAISWSGGTTYYADSVKGRFTISRDNAKTTVYLQMNSLKPEDTAVYYCNAVYYPSYQQVRAHDYWGQGTQVTVSS",
    "polyreactivity (PSR sort gate)": "high polyreactivity"
  },
  {
    "sequence.record": "QDQLVETAGGLVQAGVTHTLSCAASAFTFRNYAMGWYRQAPGKESEFVAAISRRGGSTYYADSVKGRFTISRDNAKNTVYLQLNCLKPEDTAVYYCATEPGKQNTYRMDYWGQGTQVTVSS",
    "polyreactivity (PSR sort gate)": "high polyreactivity"
  },
  {
    "sequence.record": "QVQLVESGGGLVQAGGSLRLSCAASGRTFGGYAMGWYRQAPGKESELVARISRSGGSTYYADSVKGRFTISRDNAKNTVYLQMNSLKPEDTAVYYCNTGLRNAYGWPQDDYWGQGTQVTVSS",
    "polyreactivity (PSR sort gate)": "low polyreactivity"
  },
  {
    "sequence.record": "QVQLVESGGGLVQAGGSLRLSCAASGSTFRYYAMGWYRQAPGKERELVAGITSAGNTYYADSVKGRFTISRDNAKNTVYLQMNSLKPEDTAVYYCAARRWKGYYYWGQGTQVTVSS",
    "polyreactivity (PSR sort gate)": "high polyreactivity"
  },
  {
    "sequence.record": "QVQLVESGGGLVQAGGSLRLSCAASGRIFVANAMGWYRQAPGKERELVAAISGRGSRTYYADSVKGRFTISRDNAKNAVYLQMNSLKPEDTAVYYCNARQRRNPGGYGYWGQGTQVTVSS",
    "polyreactivity (PSR sort gate)": "high polyreactivity"
  }
]
